For each entry below, report its Emax value.
System Under Test: 5-hydroxytryptamine receptor 1A (Homo sapiens) (UniProt P08908)
Test Description: Agonist activity at human 5-HT1A receptor expressed in CHO cells assessed as inhibition of forskolin-stimulated cAMP accumulation after 15 mins by ELISA relative to 5-HT
Assay type: functional, cell-based
Write your answer as a measured quantity: the number, then the unit.

Completed entries (count: 4):
Compound: COc1cccc([C@H]2CC[C@H](N3CCN(c4ccccn4)CC3)CC2)c1
Emax: 69.5%

Compound: COc1cccc2c(CCCN3CCN(c4ccccn4)CC3)cccc12
Emax: 53.6%

Compound: COc1cccc(CCCCN2CCN(c3ccccn3)CC2)c1
Emax: 53.4%

Compound: COc1ccc2c(c1)CC(CCN1CCN(c3ccccn3)CC1)CC2 (stereo not given)
Emax: 73.5%

Request: Fill in Emax for record COc1cccc2c1CCC/C2=C\CCN1CCN(c2ccccn2)CC1
Result: 66.9%

###

System Under Test: 5-hydroxytryptamine receptor 1A (Homo sapiens, UniProt P08908)
Sequence (P08908 whole entry): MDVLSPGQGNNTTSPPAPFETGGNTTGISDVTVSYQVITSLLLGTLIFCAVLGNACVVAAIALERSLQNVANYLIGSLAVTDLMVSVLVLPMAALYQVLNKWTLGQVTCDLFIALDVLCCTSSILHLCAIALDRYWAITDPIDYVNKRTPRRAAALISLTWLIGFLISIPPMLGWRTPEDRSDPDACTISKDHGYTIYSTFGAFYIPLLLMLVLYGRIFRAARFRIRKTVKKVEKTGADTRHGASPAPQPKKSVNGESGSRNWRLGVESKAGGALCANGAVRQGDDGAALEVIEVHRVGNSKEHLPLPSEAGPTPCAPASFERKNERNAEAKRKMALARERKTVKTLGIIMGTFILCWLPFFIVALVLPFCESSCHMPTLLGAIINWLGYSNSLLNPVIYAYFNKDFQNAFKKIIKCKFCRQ
Test Description: Agonist activity at human 5-HT1A receptor expressed in human HeLa cell membranes assessed as stimulation of [35S]GTPgammaS binding after 20 mins by liquid scintillation counting analysis
Type: functional
With a cut-off of 0.4 nM, any Ki strictly below it is called t; any Ki meeting it or above is called f.

Molecule: COc1cccc2c(CCCN3CCN(c4ccccn4)CC3)cccc12
Answer Label: t

Request: Item COc1ccc2c(c1)CC(CCN1CCN(c3ccccn3)CC1)CC2 (stereo unspecified) : Ki beneath 0.4 nM, strictly?
Result: t

###

System Under Test: 5-hydroxytryptamine receptor 1A (Homo sapiens) (UniProt P08908)
Test Description: Agonist activity at human 5-HT1A receptor expressed in CHO cells after 90 mins by beta-arrestin-2 recruitment assay relative to 5-HT
Format: cell-based
Think of 30% as a floor: if Emax stands on it or above, it is MET; beneath it, NOT MET.

Compound: COc1cccc([C@H]2CC[C@H](N3CCN(c4ccccn4)CC3)CC2)c1
Answer Label: NOT MET
//
Compound: COc1cccc2c(CCCN3CCN(c4ccccn4)CC3)cccc12
Answer Label: NOT MET
//
Compound: CCCN(CCC)C1CCc2cccc(O)c2C1 (racemic)
Answer Label: MET

Request: Dear colleague, could you confirm whether COc1cccc(CCCCN2CCN(c3ccccn3)CC2)c1 has Emax at or above 30%?
Result: NOT MET

Request: Dear colleague, could you confirm whether COc1cccc2c1CCC/C2=C\CCN1CCN(c2ccccn2)CC1 has Emax at or above 30%?
Result: NOT MET

Request: Dear colleague, could you confirm whether COc1ccc2c(c1)CC(CCN1CCN(c3ccccn3)CC1)CC2 (stereo unspecified) has Emax at or above 30%?
Result: MET

###

For each entry below, report its pEC50 value.
System Under Test: 5-hydroxytryptamine receptor 1A (Homo sapiens, UniProt P08908)
Sequence (P08908 whole entry): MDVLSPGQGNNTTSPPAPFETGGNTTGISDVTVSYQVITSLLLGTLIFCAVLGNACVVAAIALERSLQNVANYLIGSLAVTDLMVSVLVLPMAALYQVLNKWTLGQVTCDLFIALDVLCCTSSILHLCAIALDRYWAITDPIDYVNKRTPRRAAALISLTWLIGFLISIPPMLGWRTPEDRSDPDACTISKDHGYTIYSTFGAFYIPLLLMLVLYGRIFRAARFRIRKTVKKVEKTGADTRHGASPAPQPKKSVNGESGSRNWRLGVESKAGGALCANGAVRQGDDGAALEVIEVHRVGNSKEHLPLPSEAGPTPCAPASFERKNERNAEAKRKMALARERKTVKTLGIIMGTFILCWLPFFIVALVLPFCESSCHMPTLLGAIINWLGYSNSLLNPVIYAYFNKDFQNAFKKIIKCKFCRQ
Test Description: Agonist activity at human 5-HT1A receptor expressed in CHO cells assessed as inhibition of forskolin-stimulated cAMP accumulation after 15 mins by ELISA
Format: functional, cell-based
Numbers only, as −log10 of the molar value.

Molecule: COc1cccc2c1CCC/C2=C\CCN1CCN(c2ccccn2)CC1
Observed Property: pEC50
Value: 8.53
--
Molecule: COc1cccc2c1CCCC2CCCN1CCN(c2ccccn2)CC1 (stereo not given)
Observed Property: pEC50
Value: 9.11
--
Molecule: COc1cccc([C@H]2CC[C@H](N3CCN(c4ccccn4)CC3)CC2)c1
Observed Property: pEC50
Value: 9.10

Count: 2. Required value per item: pEC50.
1. COc1ccc2c(c1)CC(CCN1CCN(c3ccccn3)CC1)CC2 (stereo not given)
2. COc1cccc2c(CCCN3CCN(c4ccccn4)CC3)cccc12

Result:
7.68
8.90

###

For each entry below, report its Ki value.
System Under Test: 5-hydroxytryptamine receptor 1A (Homo sapiens)
Test Description: Agonist activity at human 5-HT1A receptor expressed in human HeLa cell membranes assessed as stimulation of [35S]GTPgammaS binding after 20 mins by liquid scintillation counting analysis
Numbers only, in nM.

Completed entries (count: 3):
Compound: COc1cccc([C@H]2CC[C@H](N3CCN(c4ccccn4)CC3)CC2)c1
Ki (nM): 0.028
//
Compound: COc1cccc(CCCCN2CCN(c3ccccn3)CC2)c1
Ki (nM): 23
//
Compound: COc1cccc2c1CCC/C2=C\CCN1CCN(c2ccccn2)CC1
Ki (nM): 0.31

Request: Fill in Ki for record COc1cccc2c1CCCC2CCCN1CCN(c2ccccn2)CC1 (centres undefined)
Result: 0.48
